Target: T1, TNFR1 on THP-1 Lucia NF-κB cells (UniProt P19438 30-455, limits assumed)
T1 sequence (looked up): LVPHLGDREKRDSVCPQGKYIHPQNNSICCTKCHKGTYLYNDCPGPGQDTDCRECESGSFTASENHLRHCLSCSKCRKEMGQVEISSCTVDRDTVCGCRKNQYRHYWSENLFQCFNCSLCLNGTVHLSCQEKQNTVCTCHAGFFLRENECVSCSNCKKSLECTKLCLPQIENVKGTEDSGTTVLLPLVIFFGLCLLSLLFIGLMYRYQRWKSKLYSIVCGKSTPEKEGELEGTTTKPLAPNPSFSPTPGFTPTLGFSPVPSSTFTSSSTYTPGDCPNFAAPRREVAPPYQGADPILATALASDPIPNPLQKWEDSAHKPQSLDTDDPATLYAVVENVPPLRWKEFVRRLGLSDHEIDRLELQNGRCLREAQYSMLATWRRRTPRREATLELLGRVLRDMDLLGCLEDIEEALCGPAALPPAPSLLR
Test: cell-based or functional assay
Numbered stars: 1 amine (or outer) side, 2 acyl side, 3 side chain; on linkers, the order of the positions; unused ones are H or OH. Bridge positions count the residues as written; N and C are the ends. Square brackets hold non-standard residues; d marks the D form. Primed or numbered codes have the meaning given here. bhcLeu = (1R,3S)-3-aminocyclopentane-1-carboxylic acid, O=C([C@@H]1CC[C@H](N[*:1])C1)[*:2]; Trp(βS-Me,7-OMe) = COc1cccc2c([C@H](C)[C@H](N)C(=O)O)c[nH]c12; Trp(βS-Me) = C[C@@H](c1c[nH]c2ccccc12)[C@H](N)C(=O)O; Trp(7-Cl) = N[C@@H](Cc1c[nH]c2c(Cl)cccc12)C(=O)O; Phe(4-CONH2) = NC(=O)c1ccc(C[C@H](N)C(=O)O)cc1; Phe(4-COOH) = N[C@@H](Cc1ccc(C(=O)O)cc1)C(=O)O; Trp(7-aza) = N[C@@H](Cc1c[nH]c2ncccc12)C(=O)O; Phe(4-CH2NH2) = NCc1ccc(C[C@H](N)C(=O)O)cc1; Pip(5R-OH) = O=C(O)[C@@H]1CC[C@@H](O)CN1; αMeW = C[C@](N)(Cc1c[nH]c2ccccc12)C(=O)O; 2Nal = N[C@@H](Cc1ccc2ccccc2c1)C(=O)O; 3Pal = N[C@@H](Cc1cccnc1)C(=O)O; 4Pal = N[C@@H](Cc1ccncc1)C(=O)O; NMeE = CN[C@@H](CCC(=O)O)C(=O)O; 2SBrPr = not defined here; NMeS = CN[C@@H](CO)C(=O)O; αMeS = C[C@](N)(CO)C(=O)O; Nle = CCCC[C@H](N)C(=O)O; Pip2c = not defined here; Ahp′ = not defined here; Pip′ = not defined here; Sar = CNCC(=O)O
property-name: THP-1 IC50 (nM)

Some solved entries appear below for comparison.
2SBrPr-[Nle][Phe(4-CH2NH2)]S[Trp(7-aza)][NMeE]N[4Pal][Trp(7-Cl)][αMeS][Phe(4-CONH2)]Y[Sar][Trp(βS-Me,7-OMe)]C-NH2 (thioether N-14; reading uncertain; also: printed as cyclo(2SBrPr-Nle-Phe4CH2NH2-S-Trp7az-NMeE-N-4Pal-Trp7Cl-aMeS-Phe4CONH2-Y-Sar-SbMeW7OMe-C)-NH2) [SEQ ID NO. 250] : 2.4
{CH2CO}-[Nle][4Pal][Pip′]W[NMeE]N[4Pal][Trp(7-Cl)][αMeS][Phe(4-COOH)]Y[Sar][SbMeW7Me]C-NH2 (thioether N-14) [SEQ ID NO. 208] : 4
{CH2CO}-[Nle][4Pal][Pip2c][Trp(7-aza)][NMeE]N[4Pal][Trp(7-Cl)][αMeS][Phe(4-COOH)][TyrOCF3][Sar][Trp(βS-Me,7-OMe)]C-NH2 (thioether N-14; reading uncertain; also: printed as cyclo(ClAc-Nle-4Pal-Pip2c-Trp7az-NMeE-N-4Pal-Trp7Cl-aMeS-Phe4COOH-TyrOCF3-Sar-SbMeW7OMe-C)-NH2) [SEQ ID NO. 158] : 5.3
{CH2CO}-[Ahp′]Y[AlaPiperaz][Trp(βS-Me)][dP]N[4Pal][Trp(7-Cl)][αMeS][Phe(4-COOH)][3Pal][Sar][αMeW]C-NH2 (thioether N-14; reading uncertain; also: printed as cyclo(ClAc-Ahp-Y-AlaPiperaz-SbMeW-dP-N-4Pal-Trp7Cl-aMeS-Phe4COOH-3Pal-Sar-aMeW-C)-NH2) [SEQ ID NO. 226] : 10
{CH2CO}-[Ahp′][4Pal]S[Trp(βS-Me)][dP]N[Phe(4-COOH)][2Nal][αMeS][Phe(4-COOH)]H[Sar][αMeW]C-NH2 (thioether N-14; reading uncertain; also: printed as cyclo(ClAc-Ahp-4Pal-S-SbMeW-dP-N-Phe4COOH-2Nal-aMeS-Phe4COOH-H-Sar-aMeW-C)-NH2) [SEQ ID NO. 237] : 20.8

I: XXXXENXXXXYGXC (not fully specified; cyclo(2SBrPr-Nle-4Pal-Bav-Trp7az-NMeE-N-4Pal-Trp7Cl-aMeS-Phe4CONH2-Y-Sar-SbMeW7OMe-C)-NH2) [SEQ ID NO. 273]
II: cyclo([bhcLeu][LysMe2][4Pal][Pip(5R-OH)]W[NMeE]N[4Pal][Trp(7-Cl)][αMeS][Phe(4-CONH2)]Y[Sar][Trp(βS-Me,7-OMe)]) [SEQ ID NO. 238]
III: {CH2CO}-[Nle][4Pal][NMeS]W[NMeE]N[4Pal][Trp(7-Cl)][αMeS][Phe(4-COOH)][Phe3CONH2][Sar][Trp(βS-Me,7-OMe)]C-NH2 (thioether N-14) [SEQ ID NO. 270]
Rank items: key THP-1 IC50, increasing. Answer by writing out the labels in the requested order.
II, III, I
